Molecular target: FAK (Mus musculus, UniProt P34152)
Sequence (P34152 whole entry): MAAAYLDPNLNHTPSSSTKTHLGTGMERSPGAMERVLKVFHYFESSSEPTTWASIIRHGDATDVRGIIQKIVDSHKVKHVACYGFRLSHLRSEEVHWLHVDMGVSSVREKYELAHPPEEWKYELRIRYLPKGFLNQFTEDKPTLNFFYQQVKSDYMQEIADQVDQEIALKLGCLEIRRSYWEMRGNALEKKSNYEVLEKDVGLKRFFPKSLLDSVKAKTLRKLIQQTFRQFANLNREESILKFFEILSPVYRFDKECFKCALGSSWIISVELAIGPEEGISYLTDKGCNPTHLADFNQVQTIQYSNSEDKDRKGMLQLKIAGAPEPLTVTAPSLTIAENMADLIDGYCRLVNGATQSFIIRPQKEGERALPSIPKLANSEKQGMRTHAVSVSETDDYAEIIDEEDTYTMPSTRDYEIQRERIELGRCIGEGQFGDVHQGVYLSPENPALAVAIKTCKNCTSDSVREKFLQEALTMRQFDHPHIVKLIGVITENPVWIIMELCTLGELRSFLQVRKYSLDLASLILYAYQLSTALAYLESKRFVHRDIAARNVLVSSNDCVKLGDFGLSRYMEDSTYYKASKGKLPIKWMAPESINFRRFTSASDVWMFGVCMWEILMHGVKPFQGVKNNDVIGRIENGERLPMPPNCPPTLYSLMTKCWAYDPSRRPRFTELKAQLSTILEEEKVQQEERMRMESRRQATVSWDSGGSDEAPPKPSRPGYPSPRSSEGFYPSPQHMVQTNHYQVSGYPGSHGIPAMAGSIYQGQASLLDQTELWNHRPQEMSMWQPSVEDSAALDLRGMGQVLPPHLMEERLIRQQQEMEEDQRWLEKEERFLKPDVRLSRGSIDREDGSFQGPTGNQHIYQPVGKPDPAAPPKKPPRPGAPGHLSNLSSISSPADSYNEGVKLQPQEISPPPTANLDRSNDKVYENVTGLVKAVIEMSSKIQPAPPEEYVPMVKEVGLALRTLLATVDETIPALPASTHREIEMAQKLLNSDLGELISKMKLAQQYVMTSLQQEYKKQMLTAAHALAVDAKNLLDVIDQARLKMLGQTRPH
Test: Kinobeads elution with test compound, mouse brain lysate, MS
Format: binding
Details: kinase released from kinobeads by specific elution
metric: number of identified peptides, FAK
Numbers only.

State the recorded number of identified peptides, FAK for every item in the following list.
1. NCc1ccc(Nc2ncc(F)c(Nc3ccccc3)n2)cc1
2. CCCCCCCCCCCCOS(=O)(=O)[O-].[Na+]
3. CC(C)[C@H](CO)Nc1nc(Nc2ccc(C(=O)O)c(Cl)c2)c2ncn(C(C)C)c2n1 [Purvalanol B, reference compound]
4. Cn1c(=O)c(-c2c(Cl)cccc2Cl)cc2cnc(Nc3ccc(CN)cc3)cc21

8
6
6
10

* * *

Target: Glycogen Synthase Kinase 3 alpha (Homo sapiens, UniProt P49840)
Construct: endogenous in cells
Assay: In-lysate competition binding with kinobeads, Jurkat lysate, iTRAQ MS
Conditions: Jurkat cell lysate; concentration at which relative intensity of the MS signal is 50% of DMSO control; read-out: RI50 (GSKa)
metric: IC50 (nM)
Numbers only, in nM.

Which IC50 reading was recorded for the molecule Cn1cc(C2=C(c3cn(CCCN)c4ccccc34)C(=O)NC2=O)c2ccccc21 [Bis VIII, Bisindolylmaleimide VIII] ?
72.7

* * *

I'd appreciate it if you could supply number of identified peptides, EphB2 values for the items below.
Molecular target: EphB2 (Mus musculus, UniProt P54763)
Sequence (P54763 19-986): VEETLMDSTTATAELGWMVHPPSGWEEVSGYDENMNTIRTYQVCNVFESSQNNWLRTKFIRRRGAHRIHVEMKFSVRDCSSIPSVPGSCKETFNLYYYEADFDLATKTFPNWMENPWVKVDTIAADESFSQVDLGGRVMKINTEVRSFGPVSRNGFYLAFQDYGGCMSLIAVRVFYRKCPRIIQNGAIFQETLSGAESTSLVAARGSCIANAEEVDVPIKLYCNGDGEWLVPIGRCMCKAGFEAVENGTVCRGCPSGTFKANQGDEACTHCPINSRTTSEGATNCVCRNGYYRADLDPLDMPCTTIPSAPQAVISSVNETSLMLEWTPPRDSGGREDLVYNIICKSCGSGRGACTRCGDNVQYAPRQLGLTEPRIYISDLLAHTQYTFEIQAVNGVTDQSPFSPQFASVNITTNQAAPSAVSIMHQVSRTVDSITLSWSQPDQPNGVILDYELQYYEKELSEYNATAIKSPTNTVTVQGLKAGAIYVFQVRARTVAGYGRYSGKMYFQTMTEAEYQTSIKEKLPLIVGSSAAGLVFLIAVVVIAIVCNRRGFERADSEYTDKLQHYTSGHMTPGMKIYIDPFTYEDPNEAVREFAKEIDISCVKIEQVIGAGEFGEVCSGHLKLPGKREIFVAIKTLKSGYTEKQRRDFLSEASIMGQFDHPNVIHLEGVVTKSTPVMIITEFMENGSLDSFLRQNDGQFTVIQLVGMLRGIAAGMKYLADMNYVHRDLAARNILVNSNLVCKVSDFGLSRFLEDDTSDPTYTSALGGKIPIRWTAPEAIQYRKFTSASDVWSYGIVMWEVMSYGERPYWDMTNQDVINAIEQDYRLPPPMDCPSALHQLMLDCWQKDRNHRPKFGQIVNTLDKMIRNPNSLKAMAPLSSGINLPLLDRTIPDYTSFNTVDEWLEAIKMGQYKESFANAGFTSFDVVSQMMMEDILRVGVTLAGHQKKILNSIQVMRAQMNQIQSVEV
Assay: Kinobeads elution with test compound, mouse brain lysate, MS
Type: binding
Settings: kinase released from kinobeads by specific elution
One number for each entry.

CC(C)[C@H](CO)Nc1nc(Nc2ccc(C(=O)O)c(Cl)c2)c2ncn(C(C)C)c2n1 [Purvalanol B, reference compound]	30

State the recorded number of identified peptides, EphB2 for every item in the following list.
1. Cn1c(=O)c(-c2c(Cl)cccc2Cl)cc2cnc(Nc3ccc(CN)cc3)cc21
2. CCCCCCCCCCCCOS(=O)(=O)[O-].[Na+]
3. NCc1ccc(Nc2ncc(F)c(Nc3ccccc3)n2)cc1
4. CNC1CC2OC(C)(C1OC)n1c3ccccc3c3c4c(c5c6ccccc6n2c5c31)C(=O)NC4 (centres unmarked)

[22, 19, 5, 4]

* * *

Target: EphA4 (Mus musculus, UniProt Q03137)
Sequence (Q03137 20-986): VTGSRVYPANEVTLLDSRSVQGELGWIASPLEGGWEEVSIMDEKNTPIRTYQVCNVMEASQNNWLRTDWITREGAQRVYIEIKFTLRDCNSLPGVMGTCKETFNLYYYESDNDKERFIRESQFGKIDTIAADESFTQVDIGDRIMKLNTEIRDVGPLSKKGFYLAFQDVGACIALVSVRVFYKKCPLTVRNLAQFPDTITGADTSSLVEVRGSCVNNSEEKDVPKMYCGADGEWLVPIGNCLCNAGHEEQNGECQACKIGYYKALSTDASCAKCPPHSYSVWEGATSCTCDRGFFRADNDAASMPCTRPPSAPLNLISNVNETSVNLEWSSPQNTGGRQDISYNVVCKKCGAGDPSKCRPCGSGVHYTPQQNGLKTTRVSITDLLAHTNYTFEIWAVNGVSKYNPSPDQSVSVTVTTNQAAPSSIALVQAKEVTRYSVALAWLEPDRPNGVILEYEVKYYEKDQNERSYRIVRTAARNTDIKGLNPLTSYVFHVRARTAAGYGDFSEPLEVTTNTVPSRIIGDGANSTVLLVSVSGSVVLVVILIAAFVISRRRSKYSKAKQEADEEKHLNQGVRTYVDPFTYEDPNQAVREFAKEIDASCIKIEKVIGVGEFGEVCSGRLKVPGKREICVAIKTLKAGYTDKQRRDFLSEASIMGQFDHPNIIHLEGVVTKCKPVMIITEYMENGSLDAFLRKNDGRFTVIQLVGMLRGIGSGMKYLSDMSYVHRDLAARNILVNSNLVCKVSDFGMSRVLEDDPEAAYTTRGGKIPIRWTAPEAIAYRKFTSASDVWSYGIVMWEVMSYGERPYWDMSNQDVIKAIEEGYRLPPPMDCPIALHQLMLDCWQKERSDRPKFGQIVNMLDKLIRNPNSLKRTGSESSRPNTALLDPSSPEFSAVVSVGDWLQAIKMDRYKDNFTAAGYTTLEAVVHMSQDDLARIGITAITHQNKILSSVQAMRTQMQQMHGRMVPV
Test: Kinobeads elution with test compound, mouse brain lysate, MS
Format: binding
Details: kinase released from kinobeads by specific elution
I'd appreciate it if you could supply number of identified peptides, EphA4 values for the items below.
Numbers only.

Solved entries:
CCCCCCCCCCCCOS(=O)(=O)[O-].[Na+] [SDS]	33
Cn1c(=O)c(-c2c(Cl)cccc2Cl)cc2cnc(Nc3ccc(CN)cc3)cc21 [CZC7324]	32
CC(C)[C@H](CO)Nc1nc(Nc2ccc(C(=O)O)c(Cl)c2)c2ncn(C(C)C)c2n1 [Purvalanol B, reference compound]	37
NCc1ccc(Nc2ncc(F)c(Nc3ccccc3)n2)cc1 [CZC00008004]	3

Now for another entry.
Which number of identified peptides, EphA4 reading was recorded for the compound CNC1CC2OC(C)(C1OC)n1c3ccccc3c3c4c(c5c6ccccc6n2c5c31)C(=O)NC4 (centres unmarked) [CZC9280] ?
11

* * *

Biological target: CDK5 (Mus musculus, UniProt P49615)
Sequence (P49615 whole entry): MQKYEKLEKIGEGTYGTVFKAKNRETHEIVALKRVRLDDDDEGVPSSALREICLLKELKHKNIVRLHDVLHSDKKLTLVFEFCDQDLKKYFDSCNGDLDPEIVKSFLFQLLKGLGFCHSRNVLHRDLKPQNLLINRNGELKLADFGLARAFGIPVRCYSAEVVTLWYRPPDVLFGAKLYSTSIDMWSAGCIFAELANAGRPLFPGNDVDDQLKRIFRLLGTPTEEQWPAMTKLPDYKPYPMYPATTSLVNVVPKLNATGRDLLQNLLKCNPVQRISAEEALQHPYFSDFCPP
Test: Kinobeads elution with test compound, mouse brain lysate, MS
Type: binding
Details: kinase released from kinobeads by specific elution
I'd appreciate it if you could supply mass spectrometry score, CDK5 values for the items below.
Numbers only.

Solved entries:
Cn1c(=O)c(-c2c(Cl)cccc2Cl)cc2cnc(Nc3ccc(CN)cc3)cc21	462
Oc1ccc(-c2nc(-c3ccc(F)cc3)c(-c3ccncc3)[nH]2)cc1	166
NCCCn1cc(C2=C(c3c[nH]c4ccccc34)C(=O)NC2=O)c2ccccc21 [CZC1038, Bisindolylmaleimide III, reference compound]	831

State the recorded mass spectrometry score, CDK5 for every item in the following list.
1. CCCCCCCCCCCCOS(=O)(=O)[O-].[Na+]
2. CC(C)[C@H](CO)Nc1nc(Nc2ccc(C(=O)O)c(Cl)c2)c2ncn(C(C)C)c2n1 [Purvalanol B, reference compound]
3. NCc1ccc(Nc2ncc(F)c(Nc3ccccc3)n2)cc1
4. CNC1CC2OC(C)(C1OC)n1c3ccccc3c3c4c(c5c6ccccc6n2c5c31)C(=O)NC4 (stereo not shown)

1: 604; 2: 1086; 3: 794; 4: 861

* * *

Target: FER (Mus musculus, UniProt P70451)
Sequence (P70451 whole entry): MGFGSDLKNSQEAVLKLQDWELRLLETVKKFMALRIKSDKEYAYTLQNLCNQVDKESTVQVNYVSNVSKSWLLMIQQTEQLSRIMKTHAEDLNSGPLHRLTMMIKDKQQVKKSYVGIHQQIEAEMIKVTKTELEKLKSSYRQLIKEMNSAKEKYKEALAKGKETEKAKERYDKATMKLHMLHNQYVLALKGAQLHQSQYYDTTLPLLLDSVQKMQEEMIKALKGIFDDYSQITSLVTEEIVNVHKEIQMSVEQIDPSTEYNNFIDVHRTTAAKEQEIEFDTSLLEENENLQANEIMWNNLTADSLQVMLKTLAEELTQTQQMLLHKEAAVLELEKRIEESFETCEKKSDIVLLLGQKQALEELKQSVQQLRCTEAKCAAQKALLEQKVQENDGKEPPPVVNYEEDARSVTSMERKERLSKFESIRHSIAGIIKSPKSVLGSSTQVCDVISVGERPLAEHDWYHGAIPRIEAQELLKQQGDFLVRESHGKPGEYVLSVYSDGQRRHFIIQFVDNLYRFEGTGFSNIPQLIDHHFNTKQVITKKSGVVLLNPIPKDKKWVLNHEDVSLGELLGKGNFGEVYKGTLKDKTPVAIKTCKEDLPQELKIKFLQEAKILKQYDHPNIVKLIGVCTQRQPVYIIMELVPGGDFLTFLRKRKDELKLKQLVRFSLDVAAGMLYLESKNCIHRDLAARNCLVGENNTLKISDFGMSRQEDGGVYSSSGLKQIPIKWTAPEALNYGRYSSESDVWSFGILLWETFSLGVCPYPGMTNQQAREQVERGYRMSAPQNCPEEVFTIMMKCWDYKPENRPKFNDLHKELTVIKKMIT
Assay: Kinobeads elution with test compound, mouse brain lysate, MS
Assay type: binding
Details: kinase released from kinobeads by specific elution
metric: number of identified peptides, FER
Numbers only.

Cn1c(=O)c(-c2c(Cl)cccc2Cl)cc2cnc(Nc3ccc(CN)cc3)cc21	11
NCCCn1cc(C2=C(c3c[nH]c4ccccc34)C(=O)NC2=O)c2ccccc21 [CZC1038, Bisindolylmaleimide III, reference compound]	6
CCCCCCCCCCCCOS(=O)(=O)[O-].[Na+]	11

State the recorded number of identified peptides, FER for every item in the following list.
1. CC(C)[C@H](CO)Nc1nc(Nc2ccc(C(=O)O)c(Cl)c2)c2ncn(C(C)C)c2n1 [Purvalanol B, reference compound]
2. CNC1CC2OC(C)(C1OC)n1c3ccccc3c3c4c(c5c6ccccc6n2c5c31)C(=O)NC4 (stereo not drawn)
3. NCc1ccc(Nc2ncc(F)c(Nc3ccccc3)n2)cc1

[8, 21, 2]

* * *

Molecular target: GSK3B (Mus musculus)
Construct: from tissue; host or cells: mouse brain
Sequence (Q9WV60 whole entry): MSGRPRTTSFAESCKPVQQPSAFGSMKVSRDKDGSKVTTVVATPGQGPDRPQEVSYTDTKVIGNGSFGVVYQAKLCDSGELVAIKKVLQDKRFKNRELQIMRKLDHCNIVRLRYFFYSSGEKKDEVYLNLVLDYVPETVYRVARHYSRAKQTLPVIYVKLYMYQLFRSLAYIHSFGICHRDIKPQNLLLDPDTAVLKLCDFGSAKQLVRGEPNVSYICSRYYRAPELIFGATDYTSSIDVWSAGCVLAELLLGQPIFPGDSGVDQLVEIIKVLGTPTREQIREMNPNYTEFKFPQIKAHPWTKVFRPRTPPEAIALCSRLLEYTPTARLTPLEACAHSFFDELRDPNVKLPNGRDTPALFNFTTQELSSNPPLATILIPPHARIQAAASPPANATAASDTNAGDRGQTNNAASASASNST
Assay: Kinobeads elution with test compound, mouse brain lysate, MS
Assay type: binding
Conditions: kinase released from kinobeads by specific elution
Could you label it Criterion met if measured number of identified peptides, GSK3B is 30 or higher, and Criterion not met otherwise?

NCCCn1cc(C2=C(c3c[nH]c4ccccc34)C(=O)NC2=O)c2ccccc21 [CZC1038, Bisindolylmaleimide III, reference compound]	Criterion met
CCCCCCCCCCCCOS(=O)(=O)[O-].[Na+]	Criterion met
CNC1CC2OC(C)(C1OC)n1c3ccccc3c3c4c(c5c6ccccc6n2c5c31)C(=O)NC4 (stereo not shown)	Criterion met

Record Cn1c(=O)c(-c2c(Cl)cccc2Cl)cc2cnc(Nc3ccc(CN)cc3)cc21 ; criterion: number of identified peptides, GSK3B no lower than 30. Met?
Criterion not met

Moving on to the next molecule: NCc1ccc(Nc2ncc(F)c(Nc3ccccc3)n2)cc1
Criterion not met

Moving on to the next molecule: Oc1ccc(-c2nc(-c3ccc(F)cc3)c(-c3ccncc3)[nH]2)cc1
Criterion met

* * *

Molecular target: AAK1 (Mus musculus)
Test: Kinobeads elution with test compound, mouse brain lysate, MS
Format: binding
Conditions: kinase released from kinobeads by specific elution
Kindly apply the following: YES if mass spectrometry score, AAK1 is less than 600, NO in every other case.

Below, 5 compounds whose answers are already recorded.
NCCCn1cc(C2=C(c3c[nH]c4ccccc34)C(=O)NC2=O)c2ccccc21 [CZC1038, Bisindolylmaleimide III, reference compound]	YES
NCc1ccc(Nc2ncc(F)c(Nc3ccccc3)n2)cc1 [CZC00008004]	NO
CCCCCCCCCCCCOS(=O)(=O)[O-].[Na+] [SDS]	YES
CNC1CC2OC(C)(C1OC)n1c3ccccc3c3c4c(c5c6ccccc6n2c5c31)C(=O)NC4 (stereo not shown) [CZC9280]	NO
CC(C)[C@H](CO)Nc1nc(Nc2ccc(C(=O)O)c(Cl)c2)c2ncn(C(C)C)c2n1 [Purvalanol B, reference compound]	NO

Then this compound:
Criterion: mass spectrometry score, AAK1 strictly below 600. Is it met by Oc1ccc(-c2nc(-c3ccc(F)cc3)c(-c3ccncc3)[nH]2)cc1 [CZC7098] ?
YES

* * *

Biological target: MER (Homo sapiens, UniProt Q12866)
metric: pIC50
Give bare numbers, as −log10 of the molar value.

Which pIC50 reading was recorded for the molecule COc1cc(Nc2c(C#N)cnc3cc(OCCCN4CCN(C)CC4)c(OC)cc23)c(Cl)cc1Cl [bosutinib] ?
7.80

* * *

Molecular target: MAP2K1 (Mus musculus, UniProt P31938)
Construct: from tissue; host or cells: mouse brain
Sequence (P31938 whole entry): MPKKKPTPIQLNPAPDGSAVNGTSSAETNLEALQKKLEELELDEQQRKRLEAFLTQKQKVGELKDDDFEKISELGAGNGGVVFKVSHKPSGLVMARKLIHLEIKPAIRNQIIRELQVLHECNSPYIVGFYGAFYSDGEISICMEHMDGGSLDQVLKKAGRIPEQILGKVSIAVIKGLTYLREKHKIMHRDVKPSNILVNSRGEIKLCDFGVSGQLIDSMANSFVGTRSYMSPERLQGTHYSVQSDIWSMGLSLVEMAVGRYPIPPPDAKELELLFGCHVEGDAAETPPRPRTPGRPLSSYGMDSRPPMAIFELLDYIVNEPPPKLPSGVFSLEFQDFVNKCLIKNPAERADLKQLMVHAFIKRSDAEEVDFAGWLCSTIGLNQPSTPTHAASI
Assay: Kinobeads elution with test compound, mouse brain lysate, MS
Type: binding
Conditions: kinase released from kinobeads by specific elution
Method: This example illustrates competitive elution of proteins bound to kinobeads with non-modified test compounds (see particularly the fourth aspect of the invention). The kinobeads (as described in example 1) were contacted with mouse brains lysate, bound proteins were eluted with various test compounds and the released proteins were analysed by mass spectrometry. The kinobeads were contacted with mouse brain lysate under conditions that allow the binding of the proteins in the lysate to the ligands. […]
metric: mass spectrometry score, MAP2K1
Numbers only.

CC(C)[C@H](CO)Nc1nc(Nc2ccc(C(=O)O)c(Cl)c2)c2ncn(C(C)C)c2n1 [Purvalanol B, reference compound]	78

State the recorded mass spectrometry score, MAP2K1 for every item in the following list.
1. NCCCn1cc(C2=C(c3c[nH]c4ccccc34)C(=O)NC2=O)c2ccccc21 [CZC1038, Bisindolylmaleimide III, reference compound]
2. CCCCCCCCCCCCOS(=O)(=O)[O-].[Na+]
3. CNC1CC2OC(C)(C1OC)n1c3ccccc3c3c4c(c5c6ccccc6n2c5c31)C(=O)NC4 (stereo not shown)

[208, 90, 49]
